Tested on: HCT116 (colon carcinoma)
Test: MTT anticancer activity
Type: cell-based
Conditions: Homo sapiens, HCT-116, 48 h, read-out: IC50 HCT116
Please provide measured log10 IC50 for the entries that follow.
Heads up, the numbers here are log10 of IC50 in µM units.

Record excerpt, results attached:
CC1(C)CC(=O)c2c(O)cc(=O)n(-c3ccc(F)cc3)c2C1 [Compound 3h] = 1.46
COc1ccccc1-n1c2c(c(O)cc1=O)C(=O)CCC2 [Compound 3e] = 1.47
O=C1CCCc2c1c(O)cc(=O)n2-c1ccc(F)cc1 [Compound 3d] = 1.67
O=C1CCCc2c1c(O)cc(=O)n2-c1ccc(Cl)cc1 [Compound 3c] = 2.14
CC1(C)CC(=O)c2c(O)cc(=O)n(Cc3ccccc3)c2C1 [Compound 3g] = 1.26

# return log10 IC50 for each item in the list
1. COc1ccc(-n2c3c(c(O)cc2=O)C(=O)CC(C)(C)C3)cc1 [Compound 3i]
2. O=C1CCCc2c1c(O)cc(=O)n2-c1ccccc1 [Compound 3a]
3. COc1cccc2c1C(=O)c1c(O)c3c(c(O)c1C2=O)C[C@@](O)(C(=O)CO)C[C@@H]3O[C@H]1C[C@H](N)[C@H](O)[C@H](C)O1 [Doxorubicin, reference compound]
4. COc1ccccc1-n1c2c(c(O)cc1=O)C(=O)CC(C)(C)C2 [Compound 3j]
5. CC1(C)CC(=O)c2c(O)cc(=O)n(-c3ccccc3)c2C1 [Compound 3f]
6. Cc1ccc(-n2c3c(c(O)cc2=O)C(=O)CCC3)cc1 [Compound 3b]

[1.52, 2.17, 0.76, 1.58, 2.07, 2.21]
